# Tested on: A549 cells
# Assay Notes: Cytotoxic activity on human tumour line A549 (neutral red)
# Assay type: cell-based
# Condition Info: 96 hours incubation, read-out: Cytotox. A549 IC50

{"Compound": "Cc1cc(N)c2cc(Nc3ccnc(Nc4ccc5nc(C)cc(N)c5c4)n3)ccc2n1.Cl.Cl.Cl.O.O.O.O.O", "IC50": "8.7 µM"}

* * *

Entries and their measured IC50 follow.
# Test system: A549 cells
# Assay Notes: Cytotoxic activity on human tumour line A549 (neutral red)
# Format: cell-based
# Condition Info: Homo sapiens, A549, 96 h, 96 hours incubation, read-out: Cytotox. A549 IC50
Counter-ions that a name gives are not always drawn.
Value Type: IC50 (µM)

{"Molecule": "Cc1cc(N)c2cc(Nc3nc(N)nc(Nc4ccc5nc(C)cc(N)c5c4)n3)ccc2n1 [Example 8, trihydrochloride]", "Target Of Assay": "A549 cells", "Value Type": "IC50", "Readout Value": 9.1}
{"Molecule": "CSc1nc(Nc2ccc3c(c2)c(N)cc(C)[n+]3C)nc(Nc2ccc3c(c2)c(N)cc(C)[n+]3C)n1", "Target Of Assay": "A549 cells", "Value Type": "IC50", "Readout Value": 3.6}
{"Molecule": "N=C(N)c1ccc(Nc2nc(N)nc(Nc3ccc(C(=N)N)cc3)n2)cc1 [Example 9, trihydrochloride]", "Target Of Assay": "A549 cells", "Value Type": "IC50", "Readout Value": 0.53}
{"Molecule": "CSc1nc(Nc2ccc3nc[nH]c3c2)nc(Nc2ccc3nc(C)cc(N)c3c2)n1", "Target Of Assay": "A549 cells", "Value Type": "IC50", "Readout Value": 10}
{"Molecule": "CSc1nc(Nc2ccc3c(c2)c(=N)cc(C)n3C)nc(Nc2ccc3c(c2)c(=N)cc(C)n3C)n1", "Target Of Assay": "A549 cells", "Value Type": "IC50", "Readout Value": 6.1}
{"Molecule": "CSc1nc(Nc2ccc(C#N)cc2)nc(Nc2ccc3nc(C)cc(N)c3c2)n1", "Target Of Assay": "A549 cells", "Value Type": "IC50", "Readout Value": 8}
{"Molecule": "Cc1cc(N(C)C)c2cc(Nc3nc(Cl)nc(Nc4ccc5nc(C)cc(N(C)C)c5c4)n3)ccc2n1 [Example 11, dihydrochloride dihydrate]", "Target Of Assay": "A549 cells", "Value Type": "IC50", "Readout Value": 5.14}
{"Molecule": "CC[n+]1c(C)cc(N)c2cc(Nc3nc(N)nc(Nc4ccc5c(c4)c(N)cc(C)[n+]5CC)n3)ccc21", "Target Of Assay": "A549 cells", "Value Type": "IC50", "Readout Value": 4.7}
{"Molecule": "C[n+]1c2ccccc2c(N)c2cc(Nc3nc(N)nc(Nc4ccc5c(c4)c(N)c4ccccc4[n+]5C)n3)ccc21 [Example 7, hydrochloride]", "Target Of Assay": "A549 cells", "Value Type": "IC50", "Readout Value": 4.9}
{"Molecule": "COc1cc(C)nc2ccc(Nc3nc(Nc4ccc5nc(C)cc(OC)c5c4)nc(SC)n3)cc12", "Target Of Assay": "A549 cells", "Value Type": "IC50", "Readout Value": 3.2}
{"Molecule": "CNc1nc(Nc2ccc3nc(C)cc(N)c3c2)nc(Nc2ccc3nc(C)cc(N)c3c2)n1 [Example 4, trihydrochloride]", "Target Of Assay": "A549 cells", "Value Type": "IC50", "Readout Value": 3.1}
{"Molecule": "C[n+]1ccc(NCCCCCNc2cc[n+](C)c3cc(Cl)ccc23)c2ccc(Cl)cc21", "Target Of Assay": "A549 cells", "Value Type": "IC50", "Readout Value": 6.5}
{"Molecule": "CSc1nc(Nc2ccc3nc(C)cc(N)c3c2)nc(Nc2ccc3nc(C)cc(N)c3c2)n1", "Target Of Assay": "A549 cells", "Value Type": "IC50", "Readout Value": 1.6}
{"Molecule": "CCn1c2ccccc2c2cc(Nc3nc(Nc4ccc5nc(C)cc(N)c5c4)nc(SC)n3)ccc21", "Target Of Assay": "A549 cells", "Value Type": "IC50", "Readout Value": 1.3}
{"Molecule": "CCN(CC)c1nc(Nc2ccc3ncccc3c2)nc(Nc2ccc3nc(C)cc(N)c3c2)n1", "Target Of Assay": "A549 cells", "Value Type": "IC50", "Readout Value": 1.5}
{"Molecule": "Cc1cc(N)c2cc(NC(=N)NC(=N)Nc3ccc4nc(C)cc(N)c4c3)ccc2n1 [Example 16, trihydrochloride dihydrate]", "Target Of Assay": "A549 cells", "Value Type": "IC50", "Readout Value": 5.8}
{"Molecule": "CNc1nc(Nc2ccc3nc(C)cc(NC)c3c2)nc(Nc2ccc3nc(C)cc(NC)c3c2)n1 [Example 6, trihydrochloride]", "Target Of Assay": "A549 cells", "Value Type": "IC50", "Readout Value": 1.9}
{"Molecule": "COc1ccc2nccc(Nc3nc(Nc4ccc5nc(C)cc(N)c5c4)nc(SC)n3)c2c1", "Target Of Assay": "A549 cells", "Value Type": "IC50", "Readout Value": 9.5}
{"Molecule": "CSc1nc(Nc2ccc3nc(C)cc(N)c3c2)nc(Nc2ccc3nc(C)cc(N(C)C)c3c2)n1", "Target Of Assay": "A549 cells", "Value Type": "IC50", "Readout Value": 10}
